IC50 by entry:
- Target Of Assay: Peptide N-myristoyltransferase (Homo sapiens, UniProt P30419+O60551)
- Protocol Description: In vitro inhibitory activity against human Nmt (HsNmt) using 0.5 uM peptide GNAASAR-R-NH2 and 0.5 uM myristoyl-CoA
- Assay type: protein assay

Answered examples (4):
| Smiles Structure | IC50 |
| --- | --- |
| Cc1c(C(=O)c2nc3ccccc3n2C)oc2cccc(OCCCNCc3cccnc3)c12 | 94 µM |
| Cc1nc(C(=O)c2oc3cccc(OCCCNCc4cccnc4)c3c2C)sc1C | 83 µM |
| Cc1c(C(=O)c2nc3ccccc3n2C(C)C)oc2cccc(OCCCNCc3cccnc3)c12 | 99 µM |
| Cc1c(C(=O)c2ncccc2C(F)(F)F)oc2cccc(OCCCNCc3cccnc3)c12 | > 430 µM |

Consider the record given below.
Req: Hi! What's the reported IC50 for C=CCn1c(C(=O)c2oc3cccc(OCCCNCc4cccnc4)c3c2C)nc2ccccc21 on Peptide N-myristoyltransferase (Homo sapiens, UniProt P30419+O60551)?
Resp: 85 µM

This collection of values is drawn from ChEMBL document CHEMBL1136367.
